Molecular target: HLA-A*24:02
Assay: IEDB peptide-MHC binding, purified MHC/direct/fluorescence; filed as Kd, often an IC50 or EC50 that approximates it; bounds were set here for any values at or beyond the usual limits of such assays
Details: source organism: Influenza A virus (A/chicken/Hunan/fg/2004(H5N1))
pKd: −log10 of the molar value.
measure: pKd

Documented pKd of DTVNRTHQY : ≤ 4.70

---

Biological target: HLA-A*68:02
Assay: IEDB peptide-MHC binding, purified MHC/direct/fluorescence; filed as Kd, often an IC50 or EC50 that approximates it; bounds were set here for any values at or beyond the usual limits of such assays
Conditions: source organism: Camelpox virus M-96
measure: Kd

// recorded Kd for ATNDGLIKK : ≥ 20 µM
